The entries below come with measured MIC values attached.
test system: A. fumigatus

- compound: "OC(Cn1cnnn1)(c1ccc(F)cc1F)C(F)(F)c1ccc(C#Cc2ccc(OCc3ccc(Cl)cc3F)cc2)cn1 (racemic)"
  MIC [µg/mL]: 4
- compound: "OC(Cn1cnnn1)(c1ccc(F)cc1F)C(F)(F)c1ccc(C#Cc2ccc(OCc3ccc(OC(F)(F)F)cc3)cc2)cn1 (racemic)"
  MIC [µg/mL]: 2
- compound: "OC(Cn1cnnn1)(c1ccc(F)cc1F)C(F)(F)c1ccc(C#Cc2ccc(Cl)cc2)cn1 (racemic)"
  MIC [µg/mL]: 8

###

Heads up, these compounds all have MIC values measured for A. fumigatus.
measure: MIC (µg/mL)

- compound: "OC(Cn1cnnn1)(c1ccc(F)cc1F)C(F)(F)c1ccc(C#Cc2ccc(C(F)(F)F)cc2)cn1 (racemic)"
  unit_descriptor: "µg/mL"
  val: 8
- compound: "OC(c1ccc(C#Cc2ccc(C(F)(F)C(O)(Cn3cnnn3)c3ccc(F)cc3F)nc2)cc1)C(F)(F)F (racemic)"
  unit_descriptor: "µg/mL"
  val: 0.5
- compound: "C[C@@H](c1ncncc1F)[C@](O)(Cn1cncn1)c1ccc(F)cc1F [Voriconazole, reference compound]"
  unit_descriptor: "µg/mL"
  val: 0.25

###

Heads up, these compounds all have MIC values measured for C. albicans.

- compound: "OC(Cn1cnnn1)(c1ccc(F)cc1F)C(F)(F)c1ccc(C#Cc2ccc(C(F)(F)F)cc2)cn1 (racemic)"
  comparison_operator: "="
  MIC [ng/mL]: 16
- compound: "OC(Cn1cnnn1)(c1ccc(F)cc1F)C(F)(F)c1ccc(C#Cc2ccc(Cl)cc2)cn1 (racemic)"
  comparison_operator: "="
  MIC [ng/mL]: 4
- compound: "OC(c1ccc(C#Cc2ccc(C(F)(F)C(O)(Cn3cnnn3)c3ccc(F)cc3F)nc2)cc1)C(F)(F)F (racemic)"
  comparison_operator: "≤"
  MIC [ng/mL]: 1
